Target: Glycogen synthase kinase-3 (Homo sapiens, UniProt P49840+P49841)
Test: Inhibitory concentration against Glycogen synthase kinase-3
Format: protein assay
List of Log IC50 values.
METRIC: Log IC50

• COc1cccc(-c2cc3[nH]ccnc-3n2)c1 = -5.5
• CCCCc1c(-c2ccc(OC)cc2)[nH]c2nccnc12 = -6.04
• Oc1ccccc1-c1cc2[nH]ccnc-2n1 = -5.19
• c1ccc(-c2cc3[nH]ccnc-3n2)cc1 = -5.64
• CN(C)c1ccc(-c2cc3[nH]ccnc-3n2)cc1 = -4.92
• COc1ccccc1-c1cc2[nH]ccnc-2n1 = -5.48
• COc1ccc(-c2[nH]c3nccnc3c2C)cc1OC = -5.7
• N#Cc1ccc(-c2cc3[nH]ccnc-3n2)cc1 = -5.32
• CCCc1c(-c2ccc(O)cc2)[nH]c2nccnc12 = -5.74
• COc1ccc(-c2[nH]c3nccnc3c2CC2CC2)cc1 = -5.96
• Cc1c(-c2ccc(O)cc2)[nH]c2nccnc12 = -6.28
• c1ccc(Cc2c(-c3ccccc3)[nH]c3nccnc23)cc1 = -6
• CCCc1c(-c2ccc(OC)cc2)[nH]c2nccnc12 = -6.4
